Data origin: ChEMBL document CHEMBL1142050

Target: Voltage-gated inwardly rectifying potassium channel KCNH2 (Homo sapiens, UniProt Q12809)
Sequence (Q12809 whole entry): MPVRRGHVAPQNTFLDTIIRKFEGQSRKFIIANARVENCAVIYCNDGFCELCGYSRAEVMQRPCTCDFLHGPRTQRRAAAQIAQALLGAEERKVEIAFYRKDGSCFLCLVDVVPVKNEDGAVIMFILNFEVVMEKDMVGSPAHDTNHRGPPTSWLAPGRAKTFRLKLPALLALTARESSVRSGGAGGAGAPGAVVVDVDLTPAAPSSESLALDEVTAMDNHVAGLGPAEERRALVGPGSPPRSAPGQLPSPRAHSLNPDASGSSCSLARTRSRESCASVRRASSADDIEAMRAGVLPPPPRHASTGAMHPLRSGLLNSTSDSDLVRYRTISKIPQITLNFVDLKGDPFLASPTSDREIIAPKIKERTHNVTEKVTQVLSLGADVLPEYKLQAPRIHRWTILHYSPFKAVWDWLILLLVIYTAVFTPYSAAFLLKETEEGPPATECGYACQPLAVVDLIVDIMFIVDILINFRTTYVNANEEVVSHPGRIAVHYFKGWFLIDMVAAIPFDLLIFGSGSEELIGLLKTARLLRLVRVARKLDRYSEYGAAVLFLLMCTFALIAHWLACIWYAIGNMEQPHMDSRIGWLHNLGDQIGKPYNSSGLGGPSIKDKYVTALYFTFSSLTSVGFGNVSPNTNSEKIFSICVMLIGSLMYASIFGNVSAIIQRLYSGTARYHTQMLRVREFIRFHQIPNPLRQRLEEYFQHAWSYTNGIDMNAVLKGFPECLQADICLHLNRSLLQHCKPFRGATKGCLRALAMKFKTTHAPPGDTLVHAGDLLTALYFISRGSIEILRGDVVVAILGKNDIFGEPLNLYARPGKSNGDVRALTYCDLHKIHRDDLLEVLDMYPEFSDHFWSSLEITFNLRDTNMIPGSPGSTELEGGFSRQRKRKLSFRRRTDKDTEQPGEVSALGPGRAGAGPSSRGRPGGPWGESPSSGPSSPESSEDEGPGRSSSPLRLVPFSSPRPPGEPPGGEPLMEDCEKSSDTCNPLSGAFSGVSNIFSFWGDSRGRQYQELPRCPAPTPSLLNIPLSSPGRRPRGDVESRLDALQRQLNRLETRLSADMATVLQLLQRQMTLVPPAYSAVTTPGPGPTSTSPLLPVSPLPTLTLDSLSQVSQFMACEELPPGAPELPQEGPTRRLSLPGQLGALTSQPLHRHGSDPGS
Assay: Inhibition of partially open human voltage-gated potassium channel subunit Kv11.1 (ERG K+ channel)
RECORDED_ENDPOINT: IC50 (nM)
Use nM as the unit, but write only the number.

What measured IC50 is associated with `CN(c1nccc(=O)[nH]1)C1CCN(c2nc3ccccc3n2Cc2ccc(F)cc2)CC1` on Voltage-gated inwardly rectifying potassium channel KCNH2 (Homo sapiens, UniProt Q12809)?
355
